- target system: recombinant GSK3β kinase (Homo sapiens (Human))
- Sequence (P49841 whole entry): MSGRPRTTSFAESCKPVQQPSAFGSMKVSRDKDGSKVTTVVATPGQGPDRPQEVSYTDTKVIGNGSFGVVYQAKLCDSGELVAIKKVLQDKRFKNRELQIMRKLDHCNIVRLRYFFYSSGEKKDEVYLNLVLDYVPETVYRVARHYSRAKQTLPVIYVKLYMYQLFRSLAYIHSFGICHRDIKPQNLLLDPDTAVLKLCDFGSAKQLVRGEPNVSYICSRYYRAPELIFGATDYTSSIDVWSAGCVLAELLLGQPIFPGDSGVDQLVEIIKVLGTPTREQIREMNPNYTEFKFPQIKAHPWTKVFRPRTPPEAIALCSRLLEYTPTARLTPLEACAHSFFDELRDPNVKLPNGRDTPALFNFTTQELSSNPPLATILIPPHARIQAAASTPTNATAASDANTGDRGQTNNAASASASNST
- measurement notes: GSK3β kinase assay (Ser/Thr 09 peptide Z-lyte, FRET)
- Format: biochemical
- experimental setup: GSK3β kinase, 46 μM ATP, one hour; method calls values IC50
measurement name: pEC50
One number for each entry, as −log10 of the molar value.

Cn1cc(-c2ccc3cnc(NC(=O)c4csc(C5CCN(CCF)CC5)n4)cc3c2)cn1 5.44
Cn1cc(-c2ccc3cnc(NC(=O)c4cnn(C5CCNCC5)c4)cc3c2)cn1 5.98

Please examine the following record next.
For this molecule ( `Cn1cc(-c2ccc3cnc(NC(=O)c4coc(C5CCN(CCF)CC5)n4)cc3c2)cn1` ), measured pEC50 is 5.88

* * *

- target system: recombinant GSK3β kinase (Homo sapiens (Human))
- measurement notes: GSK3β kinase assay (Ser/Thr 09 peptide Z-lyte, FRET)
- Type: biochemical
- experimental setup: GSK3β kinase, 46 μM ATP, one hour; method calls values IC50
pEC50: −log10 of the molar value.
Threshold rule: pEC50 greater than or equal to 6 is yes; below that, no.

Some solved cases for reference:
compound	target system	group
Cc1ncc(C(=O)Nc2cc3cc(-c4cnn(C5CCN(C)CC5)c4)ccc3cn2)s1 [Compound 28]	recombinant GSK3β kinase (Homo sapiens (Human))	no
Cc1nc(C(=O)Nc2cc3cc(-c4cncn4C)ccc3cn2)cs1 [Compound 57]	recombinant GSK3β kinase (Homo sapiens (Human))	no
CCN1CCC(n2cc(C(=O)Nc3cc4cc(-c5cnn(C)c5)ccc4cn3)cn2)CC1 [Compound 6]	recombinant GSK3β kinase (Homo sapiens (Human))	no
Cn1cc(-c2ccc3cnc(NC(=O)c4cnn(C5CCN(C6CC6)CC5)c4)cc3c2)cn1 [Compound 9]	recombinant GSK3β kinase (Homo sapiens (Human))	no
Cn1cncc1-c1ccc2cnc(NC(=O)c3cn(C4CCOCC4)cn3)cc2c1 [Compound 50]	recombinant GSK3β kinase (Homo sapiens (Human))	no

Please check the record Cn1cc(-c2ccc3cnc(NC(=O)c4cnn(C5CCNCC5)c4)cc3c2)nn1 [Compound 29] and state if its pEC50 is at or above 6.
yes
